QUANTITY: melting point

Example cases with answers are listed next.
N#Cc1c(-c2ccc(NC(=O)NC3CCCC3)cc2)n(CC2CC2)c2cc(OC(F)F)ccc12; 129 °C
CCn1c(C#Cc2ccc(N)cc2)c(C#N)c2ccc(OC)cc21; 163 to 166 °C
CCOc1ccc2c(C#N)c(-c3ccc(N(C)S(=O)(=O)CC)cc3)n(CC)c2c1; 163 to 164 °C
CCCn1c(-c2ccc(NS(C)(=O)=O)cc2)c(C#N)c2ccc(OC(F)F)cc21; 184 to 186 °C
CCCn1c(-c2ccc(NS(=O)(=O)C3CC3)cc2)c(C#N)c2ccc(OC(F)F)cc21; 189 to 191 °C
CCn1c(C#Cc2cccc(NC(=O)C3CCC3)c2)c(C#N)c2ccc(OC)cc21; 165 to 168 °C
CCn1c(-c2ccc(NS(=O)(=O)CC)cc2)c(C#N)c2ccc(OCCF)cc21; 150 to 153 °C
CCn1c(-c2ccc(NS(=O)(=O)CC)cc2)c(C#N)c2ccc(OCc3ccccn3)cc21; 221 to 222 °C

Query string: Given the molecule CCCS(=O)(=O)Nc1ccc(-c2c(C#N)c3ccc(OCCF)cc3n2CC)cc1 , what is its reported melting point?
Result string: 183 to 185 °C

Query string: For CCCn1c(-c2ccc(NS(=O)(=O)CC)cc2)c(C#N)c2cc(OCc3ccccc3)ccc21 then?
Result string: 199 to 202 °C

###

Test system: HCV replicon
Test: microbe, parasite or virus in culture
Format: cell-based
Settings: Hepatitis C virus, 48 h, read-out: Replicon IC5Os μM
QUANTITY: IC50

CCn1c(C#Cc2cccc(C)c2)c(C#N)c2ccc(OC)cc21 [Compound 144]; 0.5 to 2 µM
CCn1c(C#Cc2ccc(N)cc2)c(C#N)c2ccc(C(N)=O)cc21 [Compound 96]; 0.5 to 2 µM
CCS(=O)(=O)Nc1ccc(-c2c(C#N)c3ccc(OC)cc3n2C2CCC2)cc1 [Compound 86]; < 0.5 µM
CCn1c(C#Cc2ccc(C(F)(F)F)cc2)c(C#N)c2ccc(O)cc21 [Compound 185]; 0.5 to 2 µM

Query string: Given the compound CCOC(=O)Nc1ccc(-c2c(C#N)c3cc(OC)ccc3n2CC)cc1 [Compound 793] , what is its reported IC50?
Result string: < 0.5 µM

###

Examples of compounds with documented melting point follow.

Example cases with answers are listed next.
CCCOC(=O)Nc1cccc(-c2c(C#N)c3cc(N4CCOCC4)ccc3n2CC)c1; 166 to 170 °C
CCn1c(C#Cc2ccc(C(C)(C)C)cc2)c(C#N)c2ccc(OC)cc21; 110 to 113 °C
CCn1c(-c2ccc(N(C)S(=O)(=O)CCl)cc2)c(C#N)c2ccc(OC)cc21; 191 to 194 °C

Query string: Given the compound CCS(=O)(=O)Nc1ccc(-c2c(C#N)c3cc(OC)ccc3n2C)cc1 , what is its reported melting point?
Result string: 198 to 200 °C

###

Tested on: HCV replicon
Experiment: microbe, parasite or virus in culture
Type: cell-based
Details: Replicon IC50 values are determined by firefly luciferase signal; bicistronic replicon, 2 days; read-out: Replicon IC5Os
pIC50: −log10 of the molar value.
Examples of molecules with documented pIC50 follow.

CCOc1ccc(-c2c(C#N)c3ccc(OC)cc3n2CC)cc1; < 5.70
CCn1c(-c2ccc(NS(C)(=O)=O)cc2)c(C#N)c2ccc(OC(F)(F)F)cc21; > 6.30

Query string: Given the molecule CCn1c(-c2ccc(NC(=O)c3ccc4c(c3)OCO4)cc2)c(C#N)c2ccccc21 , what is its reported pIC50?
Result string: < 5.70

Query string: For CCn1c(C#Cc2ccc(OC)c(OC)c2)c(C#N)c2ccc(OC)cc21 then?
Result string: 5.70 to 6.30

Query string: For CCn1cc(-c2nccs2)c2ccc(C(=O)OC)cc21 then?
Result string: < 5.70

Query string: For CCCn1c(-c2cccc(NS(=O)(=O)CCC)c2)c(C#N)c2ccc(OC)cc21 then?
Result string: < 5.70

Query string: For CCOC(=O)c1cn(CC)c2cc3c(cc12)OCO3 then?
Result string: < 5.70

Query string: For CCCNC(=O)Nc1cccc(-c2c(C#N)c3cc(OC)ccc3n2CC)c1 then?
Result string: < 5.70

###

Examples of compounds with documented melting point follow.

CCCCn1c(-c2ccc(NS(=O)(=O)CC)cc2)c(C#N)c2ccc(OC)cc21; 159 to 161 °C
CCn1c(-c2ccc(NC(C)=O)cc2)c(C#N)c2ccc(C(F)(F)F)cc21; 241 to 243 °C
CCn1c(C#Cc2ccc(NS(=O)(=O)CC)cc2)c(C#N)c2ccc(OC)cc21; 199 to 204 °C
CCOc1ccc(-c2c(C#N)c3ccc(NS(C)(=O)=O)cc3n2CC)cc1; 179 to 180 °C
CCCn1c(-c2ccc(NC(=O)NCCc3ccccc3)cc2)c(C#N)c2ccc(OC)cc21; 193 to 194 °C
CCn1c(C#Cc2ccc(NS(=O)(=O)C(C)C)cc2)c(C#N)c2ccc(OC)cc21; 209 to 212 °C

Query string: Given the compound CCn1c(-c2ccc(NC(=O)OC)cc2)c(C#N)c2ccc(OCCF)cc21 , what is its reported melting point?
Result string: 203 to 205 °C

Query string: For CS(=O)(=O)Nc1ccc(-c2c(C#N)c3ccc(OC(F)F)cc3n2CC2CC2)cc1 then?
Result string: 198 to 200 °C

Query string: For CCn1c(-c2ccc(NS(=O)(=O)C3CC3)cc2)c(C#N)c2ccc(OCc3cccnc3)cc21 then?
Result string: 231 to 233 °C

###

Examples of molecules with documented melting point follow.

CCn1c(-c2ccc(NC(=O)C3CCC3)cc2)c(C#N)c2cc(OC)ccc21; 191 to 192 °C
CCCNC(=O)Nc1ccc(-c2c(C#N)c3cc(Cl)ccc3n2CC)cc1; 221 to 226 °C

Query string: Given the molecule CCCn1c(-c2ccc(NC(=O)OC(C)C)cc2)c(C#N)c2ccc(OC)cc21 , what is its reported melting point?
Result string: 177 to 178 °C

Query string: For CCCCS(=O)(=O)Nc1ccc(-c2c(C#N)c3cc(Cl)ccc3n2CC)cc1 then?
Result string: 143 to 149 °C

###

QUANTITY: melting point

Example cases with answers are listed next.
CCCCn1c(-c2ccc(NS(=O)(=O)C3CC3)cc2)c(C#N)c2ccc(OC)cc21; 166 to 168 °C
CCOC(=O)Nc1ccc(-c2c(C#N)c3cc(Cl)ccc3n2CC)cc1; 205 to 211 °C
COc1ccc2c(C#N)c(-c3ccc(NS(C)(=O)=O)cc3)n(CC3CC3)c2c1; 126 to 128 °C
CCn1c(C#Cc2ccccc2)c(C#N)c2ccc(O)cc21; 209 to 212 °C
CCS(=O)(=O)Nc1ccc(-c2c(C#N)c3cc(Cl)ccc3n2CCC(C)C)cc1; 177 to 182 °C

Query string: Given the molecule CCn1c(-c2ccc3c(c2)oc(=O)n3C)c(C#N)c2ccc(OC)cc21 , what is its reported melting point?
Result string: 227 to 230 °C

Query string: For CCn1c(-c2ccc(NS(C)(=O)=O)cc2)c(C#N)c2ccc(OCCN(C)C)cc21 then?
Result string: 192 to 194 °C

Query string: For COc1ccc2c(C#N)c(-c3ccc(N4CCCC4=O)cc3)n(CCF)c2c1 then?
Result string: 219 to 221 °C

###

Test system: HCV replicon
Assay: microbe, parasite or virus in culture
Format: cell-based
Details: Hepatitis C virus, 48 h, read-out: Replicon IC5Os μM
Examples of molecules with documented IC50 follow.

Example cases with answers are listed next.
CCOc1ccc(-c2c(C#N)c3ccc(NS(C)(=O)=O)cc3n2CC)cc1 [Compound 834]; 0.5 to 2 µM
COc1ccc2c(C#N)c(-c3cccc(N4CCCS4(=O)=O)c3)n(C(C)C)c2c1 [Compound 784]; 0.5 to 2 µM
CCOc1ccc2c(C#N)c(-c3ccc(NC(=O)NCCCl)cc3)n(CC)c2c1 [Compound 774]; 0.5 to 2 µM
CCn1c(-c2ccc(NC(=O)Cc3ccccc3)cc2)c(C#N)c2ccc(OC)cc21 [Compound 802]; 0.5 to 2 µM
CC(C)OC(=O)Nc1ccc(-c2c(C#N)c3ccc(OC(F)F)cc3n2C2CCC2)cc1 [Compound 822]; 0.5 to 2 µM
CCn1c(NC(=O)c2cccc(C)c2)c(C#N)c2ccc(OC)cc21 [Compound 23]; < 0.5 µM

Query string: Given the molecule CCn1c(C#Cc2ccc(N)cc2)c(C#N)c2ccc(C(F)(F)F)cc21 [Compound 200] , what is its reported IC50?
Result string: 0.5 to 2 µM

Query string: For CCn1c(-c2ccc(NC(=O)OC(C)C)cc2)c(C#N)c2cc(OC)ccc21 [Compound 795] then?
Result string: < 0.5 µM
